- Test system: vCap Cell
- assayNotes: vCap cell growth inhibition, CellTiter-Glo, 72 h
- Type: cell-based
- statedConditions: Homo sapiens, VCaP, 72 h, vCap cells, 72 h culture
pIC50: −log10 of the molar value.
endpoint: pIC50

| compound | targetOrTestSystem | endpoint | result |
| --- | --- | --- | --- |
| CC(=O)N1Cc2cc(C3CCN(C[C@H](C)O)CC3)cc(N3CCCc4cc(-c5cnn(C)c5)c(C(F)F)cc43)c2C1 | vCap Cell | pIC50 | < 6.00 |
| CC(=O)N1Cc2cc(C3CCN(CC(F)(F)F)CC3)cc(N3CCCc4cc(-c5cnn(C)c5)c(C(F)F)cc43)c2C1 | vCap Cell | pIC50 | < 6.00 |

Give the measured pIC50 of `CC(=O)N1CCc2cc(-c3ccn(C)c(=O)c3)cc(N3CCCc4cc(-c5cnn(C)c5)c(C(F)F)cc43)c2C1` .
< 6.00

Give the measured pIC50 of `CNC(=O)N1CCc2cc(N3CCOCC3)cc(N3CCCc4cc(-c5cnn(C)c5)c(C(F)F)cc43)c2C1` .
< 6.00

Give the measured pIC50 of `CC(=O)N1CCCc2cccc(N3CCCc4cc(-c5cnn(C)c5)c(C(F)F)cc43)c2C1` .
< 6.00

Give the measured pIC50 of `CC(=O)N1Cc2cc([C@H]3CC[C@@H](S(C)(=O)=O)CC3)cc(N3CCCc4cc(-c5cnn(C)c5)c(C(F)F)cc43)c2C1` .
> 6.00

Give the measured pIC50 of `CC(=O)N1Cc2cc(C3CCC(F)(F)CC3)cc(N3CCCc4cc(-c5cnn(C)c5)c(C(F)F)cc43)c2C1` .
< 6.00

Give the measured pIC50 of CNC(=O)N1CCc2cc(C3CCC(=O)N(C)C3)cc(N3CCCc4cc(-c5cnn(C)c5)c(C(F)F)cc43)c2C1 (centres unmarked) .
> 6.00

Give the measured pIC50 of CC(=O)N1Cc2cc(C3CCC(S(C)(=N)=O)CC3)cc(N3CCCc4cc(-c5cnn(C)c5)c(C(F)F)cc43)c2C1 (centres unmarked) .
> 6.00

Give the measured pIC50 of CCN1CCC(c2cc3c(c(N4CCCc5cc(-c6cnn(C)c6)c(C(F)F)cc54)c2)CN(C(=O)NC)CCC3)CC1=O (centres unmarked) .
< 6.00

Give the measured pIC50 of CNC(=O)N1CCc2cc(C3CCN(CCOC)C(=O)C3)cc(N3CCCc4cc(-c5cnn(C)c5)c(C(F)F)cc43)c2C1 (centres unmarked) .
> 6.00

Give the measured pIC50 of CC(=O)N1Cc2cc(C3CCNC(=O)C3)cc(N3CCCc4cc(-c5cnn(C)c5)ccc43)c2C1 (centres unmarked) .
< 6.00

Give the measured pIC50 of `COC(=O)N1CCCc2cccc(N3CCCc4cc(-c5cnn(C)c5)c(C(F)F)cc43)c2C1` .
< 6.00

====

- System: vCap Cell
- assayNotes: vCap cell growth inhibition, CellTiter-Glo, 72 h
- Assay type: cell-based
- statedConditions: Homo sapiens, VCaP, 72 h, vCap cells, 72 h culture
pIC50: −log10 of the molar value.
The entries below come with measured pIC50 values attached.

Below: 3 compounds and their reported pIC50.
| compound | pIC50 |
| --- | --- |
| CC(=O)N1Cc2cc(C3CCN(C(=O)C4CCN(C)C4)CC3)cc(N3CCCc4cc(-c5cnn(C)c5)c(C(F)F)cc43)c2C1 (centres unmarked) [Compound M001087] | < 6.00 |
| CNC(=O)N1Cc2cc(C3CCN(C)C(=O)C3)cc(N3CCCc4cc(-c5cnn(C)c5)c(C(F)F)cc43)c2C1 (centres unmarked) [Compound M001119] | < 6.00 |
| CC(=O)N1Cc2cc(C3CCN(C(=O)C4CC4)CC3)cc(N3CCCc4cc(-c5cnn(C)c5)c(C(F)F)cc43)c2C1 [Compound M001072] | < 6.00 |

Give the measured pIC50 of CON1CCC(c2cc3c(c(N4CCCc5cc(-c6cnn(C)c6)c(C(F)F)cc54)c2)CN(C(C)=O)C3)CC1 [Compound M001269] .
< 6.00

Give the measured pIC50 of CNC(=O)N1CCc2cc(N3CCNCC3)cc(N3CCCc4cc(-c5cnn(C)c5)c(C(F)F)cc43)c2C1 [Compound M001044] .
< 6.00

Give the measured pIC50 of CNC(=O)N1Cc2cc(-c3ccccc3)cc(N3CCCc4cc(-c5cnn(C)c5)c(C(F)F)cc43)c2C1 [Compound M001120] .
< 6.00

Give the measured pIC50 of CNC(=O)N1Cc2nc(Cl)nc(N3CCCc4cc(-c5cnn(C)c5)c(C(F)F)cc43)c2C1 [Compound M001242] .
< 6.00

Give the measured pIC50 of CNC(=O)N1Cc2cc(C3CCNCC3)cc(N3CCCc4cc(-c5cnn(C)c5)c(C(F)F)cc43)c2C1 [Compound M001042] .
< 6.00
